Taken from ChEMBL document CHEMBL5137017.

Assay: Clast in athymic nude mouse xenografted with rat Rat1 cells expressing myr-p110alpha at 20 mg/kg, po measured after 8 days by LC-MS/MS analysis
Type: ADME, organism-based
Details: in vivo, time 8 day, read-out: Clast
experimentalReadout: concentration at 192 h (nM)
Numbers only, in nM.

## Input What concentration at 192 h value was documented for this molecule, `C[C@H]1OC(=O)N(c2nc(-c3cnc(N)nc3C(F)(F)F)cc(N3CCOCC3)n2)[C@H]1CO` ?
## Output 110

---

Assay: Solubility of compound in FaSSIF at pH 6.5 measured upto 120 mins by HPLC analysis
Assay type: physicochemical
experimentalReadout: solubility at 2 h (µM)
Give bare numbers, in µM.

## Input So what's the measured solubility at 2 h for this one? `C[C@H]1OC(=O)N(c2nc(-c3cnc(N)nc3C(F)(F)F)cc(N3CCOCC3)n2)[C@H]1CO`
## Output 31
